test: Cytotoxicity against human HuH7 cells assessed as reduction in cell viability by measuring ATP level measured after 72 hrs by CellTiter-Glo luminescent assay; type: cell-based, Huh-7
Overview of recorded CC50 at 72 h for various molecules
Give the value, in units of µM, as a plain number.

Field: example entries. Status: answers known.
{"MOLECULE": "CCCCc1cn(-c2ccc(NC(=O)Nc3ccccc3NS(C)(=O)=O)cc2)nn1", "CC50 at 72 h [µM]": 35}
{"MOLECULE": "CCCCCCc1cn(-c2ccc(NC(=O)Nc3ccccc3C(F)(F)F)cc2)nn1", "CC50 at 72 h [µM]": 170}
{"MOLECULE": "CCOCc1cn(-c2cccc(S(=O)(=O)Nc3ccccc3NS(C)(=O)=O)c2)nn1", "CC50 at 72 h [µM]": 87}
{"MOLECULE": "Cc1ccccc1NC(=O)Nc1ccc(-n2cc(CCC(C)C)nn2)cc1", "CC50 at 72 h [µM]": 170}

## Task I would be grateful if you could share the reported CC50 at 72 h for `CCCCc1cn(-c2cccc(S(=O)(=O)Nc3ccccc3O)c2)nn1` .
## Result 150

## Task Try this molecule too: `CC(C)CCc1cn(-c2ccc(NC(=O)Nc3ccccc3F)cc2)nn1`
## Result 200

###

target: ATP-dependent RNA helicase DDX3X (Homo sapiens, UniProt O00571); test: Inhibition of recombinant full length human His-tagged DDX3X expressed in Escherichia coli using dsRNA as substrate measured after 40 mins in presence of ATP by FRET assay
Sequence (O00571 whole entry): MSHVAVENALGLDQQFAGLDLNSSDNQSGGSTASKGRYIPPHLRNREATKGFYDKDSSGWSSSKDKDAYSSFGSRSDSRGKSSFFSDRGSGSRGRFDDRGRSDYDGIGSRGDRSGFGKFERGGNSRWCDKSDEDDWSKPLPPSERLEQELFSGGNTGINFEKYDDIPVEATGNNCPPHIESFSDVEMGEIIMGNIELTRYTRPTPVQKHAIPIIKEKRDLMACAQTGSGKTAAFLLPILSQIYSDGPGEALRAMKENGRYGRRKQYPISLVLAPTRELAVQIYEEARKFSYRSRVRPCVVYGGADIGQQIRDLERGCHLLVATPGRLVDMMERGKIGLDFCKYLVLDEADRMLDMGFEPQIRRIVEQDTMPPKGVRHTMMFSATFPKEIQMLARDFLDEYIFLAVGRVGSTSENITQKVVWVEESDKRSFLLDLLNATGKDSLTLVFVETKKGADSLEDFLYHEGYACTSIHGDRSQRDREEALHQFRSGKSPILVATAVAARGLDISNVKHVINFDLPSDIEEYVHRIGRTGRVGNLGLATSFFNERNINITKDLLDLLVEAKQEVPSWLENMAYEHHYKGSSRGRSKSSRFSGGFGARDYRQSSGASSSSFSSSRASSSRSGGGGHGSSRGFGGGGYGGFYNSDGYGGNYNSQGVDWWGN
MEASURED_ENDPOINT: IC50 (nM)
Your answer is read as nM, so omit the unit and give the number.

The examples below pair each entry with its known result.
{"COMPOUND": "Cc1ccccc1NC(=O)Nc1ccc(-n2cc(CCC(C)C)nn2)cc1", "RESULT_UNITS": "nM", "IC50": 170}
{"COMPOUND": "CCCCc1cn(-c2cccc(S(=O)(=O)Nc3ccccc3O)c2)nn1", "RESULT_UNITS": "nM", "IC50": 400}
{"COMPOUND": "COc1cc(-n2cc(CCC(C)C)nn2)ccc1NC(=O)Nc1ccccc1C(F)(F)F", "RESULT_UNITS": "nM", "IC50": 1050}
{"COMPOUND": "CCOCc1cn(-c2cccc(S(=O)(=O)Nc3ccccc3NS(C)(=O)=O)c2)nn1", "RESULT_UNITS": "nM", "IC50": 80}
{"COMPOUND": "CCCC(C)C(F)c1cn(-c2ccc(NC(=O)Nc3ccccc3C(F)(F)F)cc2)nn1 (stereo not given)", "RESULT_UNITS": "nM", "IC50": 1050}

## Task Given the entry `CCCCc1cn(-c2ccc(NC(=O)Nc3ccccc3NS(C)(=O)=O)cc2)nn1` , report its measured IC50.
## Result 60

## Task # iterate: `CCOCc1cn(-c2cccc(S(=O)(=O)Nc3ccccc3N3CCOCC3)c2)nn1`
## Result 60

## Task Same again, this time with `CC(=O)CCc1cn(-c2ccc(NC(=O)Nc3cccc(F)c3)cc2)nn1`
## Result 2400

## Task Now this one: `CCCCc1cn(-c2ccc(NC(=O)Nc3cccc(F)c3)cc2)nn1`
## Result 600

## Task Again, but for `CCCCc1cn(-c2cccc(S(=O)(=O)Nc3cccc4cnccc34)c2)nn1`
## Result 120

###

assay: in vitro; conditions: human
MEASURED_ENDPOINT: selectivity ratio at 72 h
Output: the number by itself.

## Task Need selectivity ratio at 72 h of NC(=O)c1ncn([C@@H]2O[C@H](CO)[C@@H](O)[C@H]2O)n1 [RIBAVIRIN] , thanks.
## Result 25

###

assay: in vitro; settings: human, HuH7 cells
Label scheme for selectivity ratio at 72 h: Low (below 20), Medium (20 to below 60), High (60 or more)

Reference set (4 entries):
{"SMILES_DATA": "CCCCc1cn(-c2cccc(S(=O)(=O)Nc3ccccc3C(F)(F)F)c2)nn1", "CLASSIFICATION": "Low"}
{"SMILES_DATA": "CCOCc1cn(-c2cccc(S(=O)(=O)Nc3ccccc3NS(C)(=O)=O)c2)nn1", "CLASSIFICATION": "Low"}
{"SMILES_DATA": "CCOCc1cn(-c2cccc(S(=O)(=O)Nc3cccc(C(=O)OCC)c3)c2)nn1", "CLASSIFICATION": "Medium"}
{"SMILES_DATA": "CCOCc1cn(-c2cccc(S(=O)(=O)Nc3ccccc3N3CCOCC3)c2)nn1", "CLASSIFICATION": "Low"}

## Task In plain terms, what class is `CC(C)OC(=O)[C@H](C)N[P@](=O)(OC[C@H]1O[C@@H](n2ccc(=O)[nH]c2=O)[C@](C)(F)[C@@H]1O)Oc1ccccc1` ?
## Result Medium

## Task Could you do the same for `Cc1ccccc1NC(=O)Nc1ccc(-n2cc(CCC(C)C)nn2)cc1` , please?
## Result High

## Task Param item: `CCCCc1cn(-c2ccc(NC(=O)Nc3cccc(F)c3)cc2)nn1`
## Result Low

## Task Input `CCCCc1cn(-c2ccc(NC(=O)Nc3ccccc3NS(C)(=O)=O)cc2)nn1`
## Result Low

## Task Field entry: `CC(C)CCc1cn(-c2ccc(NC(=O)Nc3ccccc3F)cc2)nn1`
## Result High

## Task Then this compound: `CC(=O)CCc1cn(-c2ccc(NC(=O)Nc3cccc(F)c3)cc2)nn1`
## Result High

## Task Would you kindly repeat that for `CC(C)CCc1cn(-c2ccc(NC(=O)Nc3cccc(F)c3)cc2)nn1` ?
## Result High

## Task Another compound to look at: `CCCCCCc1cn(-c2ccc(NC(=O)Nc3ccccc3C(F)(F)F)cc2)nn1`
## Result High

###

target: ATP-dependent RNA helicase DDX3X (Homo sapiens); assay: Inhibition of recombinant full length human His-tagged DDX3X expressed in Escherichia coli using dsRNA as substrate measured after 40 mins in presence of ATP by FRET assay
Reported values of log10 of IC50 for individual entries
Record value = log10 of IC50 given in nM.

See these solved cases before continuing.
{"SMILES_DATA": "CCOCc1cn(-c2cccc(S(=O)(=O)Nc3cccc(C(=O)OCC)c3)c2)nn1", "log10 of IC50": 0.70}
{"SMILES_DATA": "O=C(Nc1ccc(-n2cc(CF)nn2)cc1)Nc1ccccc1C(F)(F)F", "log10 of IC50": 3.34}
{"SMILES_DATA": "COc1cc(NC(=O)Nc2ccccc2C(F)(F)F)ccc1-n1cc(CCC(C)C)nn1", "log10 of IC50": 2.48}

## Task Given the compound `CC(C)CCc1cn(-c2ccc(NC(=O)Nc3ccc(F)cc3)cc2)nn1` , what is its reported log10 of IC50?
## Result 3.28

## Task // repeat for `CCCCc1cn(-c2cccc(S(=O)(=O)Nc3ccccc3OC)c2)nn1` and report
## Result 2.26

## Task Now the compound `CCOCc1cn(-c2ccc(NC(=O)Nc3cccc(F)c3)cc2)nn1`
## Result 4.33

## Task Continue with `CCCCCCc1cn(-c2ccc(NC(=O)Nc3ccccc3C(F)(F)F)cc2)nn1`
## Result 2.48

###

assay: Cytotoxicity against human HuH7 cells assessed as reduction in cell viability by measuring ATP level measured after 72 hrs by CellTiter-Glo luminescent assay; type: cell-based, Huh-7
Listed here: items and their measured CC50 at 72 h.
The answer is to be given in µM; state only the numeric part.

Look over these answered cases.
{"SMILES_DATA": "CCOCc1cn(-c2ccc(NC(=O)Nc3cccc(F)c3)cc2)nn1", "RESULT_UNITS": "µM", "CC50 at 72 h": 145}
{"SMILES_DATA": "CCCCc1cn(-c2ccc(NC(=O)Nc3cccc(F)c3)cc2)nn1", "RESULT_UNITS": "µM", "CC50 at 72 h": 200}
{"SMILES_DATA": "CCOCc1cn(-c2cccc(S(=O)(=O)Nc3cccc(C(=O)OCC)c3)c2)nn1", "RESULT_UNITS": "µM", "CC50 at 72 h": 100}
{"SMILES_DATA": "CC(=O)CCc1cn(-c2ccc(NC(=O)Nc3cccc(F)c3)cc2)nn1", "RESULT_UNITS": "µM", "CC50 at 72 h": 20}
{"SMILES_DATA": "CCCCc1cn(-c2cccc(S(=O)(=O)Nc3cccc4cnccc34)c2)nn1", "RESULT_UNITS": "µM", "CC50 at 72 h": 30}
{"SMILES_DATA": "CC(C)CCc1cn(-c2ccc(NC(=O)Nc3cccc(F)c3)cc2)nn1", "RESULT_UNITS": "µM", "CC50 at 72 h": 200}
{"SMILES_DATA": "CCOCc1cn(-c2cccc(S(=O)(=O)Nc3cccc(C(=O)O)c3)c2)nn1", "RESULT_UNITS": "µM", "CC50 at 72 h": 7}
{"SMILES_DATA": "CCOCc1cn(-c2cccc(S(=O)(=O)Nc3ccccc3N3CCOCC3)c2)nn1", "RESULT_UNITS": "µM", "CC50 at 72 h": 100}

## Task I have this molecule here, `NC(=O)c1ncn([C@@H]2O[C@H](CO)[C@@H](O)[C@H]2O)n1` , and I need its recorded CC50 at 72 h.
## Result 100

## Task Please do the same for `O=C1OC2(c3ccc(O)cc3Oc3cc(O)ccc32)c2cc(NC(=S)NCCOCc3cn(-c4cccc(S(=O)(=O)Nc5ccccc5C(F)(F)F)c4)nn3)ccc21` as well.
## Result 140

## Task // query: `CCCCc1cn(-c2cccc(S(=O)(=O)Nc3ccccc3OC)c2)nn1`
## Result 79
